Details: in 2-butanone, 298.15 K
attribute-measured: solubility (mole fraction)
// no unit string in output, number only

-- ask Any idea what solubility (mole fraction) was measured for O=C1C(CCS(=O)c2ccccc2)C(=O)N(c2ccccc2)N1c1ccccc1 (stereo unspecified) ?
-- reply 0.0241

----------
Conditions: in methanol, 318.15 K
attribute-measured: solubility (mole fraction)
Please give only the number in your answer, with no unit.

-- ask Form field: reported solubility (mole fraction) of O=C1C(CCS(=O)c2ccccc2)C(=O)N(c2ccccc2)N1c1ccccc1 (stereo unspecified)
-- reply 0.0176

----------
Settings: in isopropanol, 308.15 K
attribute-measured: solubility (mole fraction)
Returns: the value as a bare number; no unit string appended.

-- ask # get_value(readout='solubility (mole fraction)', item= O=C1C(CCS(=O)c2ccccc2)C(=O)N(c2ccccc2)N1c1ccccc1 (stereo unspecified) )
-- reply 0.0045
